# EXPERIMENTAL_PROTOCOL: Mouse PK study (IV and PO) in female C57B16/N
# Format: in vivo
# MEASUREMENT_CONDITIONS: mouse, plasma, 10 mg/kg (Table 5B, title: IV Dosage)
ENDPOINT_LABEL: half-life (h)
The figure you give is taken to be in h; do not add the unit.

Form field: reported half-life of CNc1cc2ccnc(N)c2cn1
2.38

* * *

# EXPERIMENTAL_PROTOCOL: Mouse PK study (IV and PO) in female C57B16/N
# Type: in vivo
# MEASUREMENT_CONDITIONS: mouse, plasma, 3 mg/kg IV
ENDPOINT_LABEL: C0 (ng/mL)
The figure you give is taken to be in ng/mL; do not add the unit.

Form field: reported C0 of CNc1cc2ccnc(N)c2cn1
864

* * *

# EXPERIMENTAL_PROTOCOL: in vitro
# MEASUREMENT_CONDITIONS: human, microsomes
ENDPOINT_LABEL: half-life at 2 uM

Form field: reported half-life at 2 uM of CNc1cc2ccnc(N)c2cn1
> 4.26 h

* * *

# EXPERIMENTAL_PROTOCOL: Mouse PK study (IV and PO) in female C57B16/N
# Type: in vivo
# MEASUREMENT_CONDITIONS: mouse, plasma, 50 mg/kg (Table 5B, title: IV Dosage)
ENDPOINT_LABEL: Cmax
Just the number plus its unit, please.

Form field: reported Cmax of CNc1cc2ccnc(N)c2cn1
1350 ng/mL

* * *

# EXPERIMENTAL_PROTOCOL: in vitro
# MEASUREMENT_CONDITIONS: male, mouse, microsomes
ENDPOINT_LABEL: microsomal CLint at 2 uM (µL/min/mg)
The figure you give is taken to be in µL/min/mg; do not add the unit.

Form field: reported microsomal CLint at 2 uM of CNc1cc2ccnc(N)c2cn1
25.9

* * *

# EXPERIMENTAL_PROTOCOL: Mouse PK study (IV and PO) in female C57B16/N
# Type: in vivo
# MEASUREMENT_CONDITIONS: mouse, plasma, 3 mg/kg IV
ENDPOINT_LABEL: half-life (min)
The figure you give is taken to be in min; do not add the unit.

Form field: reported half-life of CNc1cc2ccnc(N)c2cn1
25.5

* * *

# EXPERIMENTAL_PROTOCOL: in vitro
# MEASUREMENT_CONDITIONS: male, mouse, microsomes
# Experimental: A master solution was prepared according to the following table. 40 μL of 10 mM NADPH solution was added to each well. The final concentrations of NADPH was 1 mM. The mixture was pre-warmed at 37° C. for 5 minutes. The negative control samples were prepared by replacing NADPH solutions with 40 μL of ultra-pure H2O. The negative control was used to exclude the misleading factor that resulted from instability of chemical itself. Samples with NADPH were prepared in duplicate. […]
ENDPOINT_LABEL: CLint scaled at 2 uM (mL/min/kg)
The figure you give is taken to be in mL/min/kg; do not add the unit.

Form field: reported CLint scaled at 2 uM of CNc1cc2ccnc(N)c2cn1
113

* * *

# EXPERIMENTAL_PROTOCOL: in vitro
# MEASUREMENT_CONDITIONS: male, mouse, microsomes
ENDPOINT_LABEL: half-life at 2 uM (min)
The figure you give is taken to be in min; do not add the unit.

Form field: reported half-life at 2 uM of CNc1cc2ccnc(N)c2cn1
53.6

* * *

# EXPERIMENTAL_PROTOCOL: Mouse PK study (IV and PO) in female C57B16/N
# Format: in vivo
# MEASUREMENT_CONDITIONS: mouse, plasma, 3 mg/kg IV, read-out: MRTInf—obs
ENDPOINT_LABEL: MRT inf
Just the number plus its unit, please.

Form field: reported MRT inf of CNc1cc2ccnc(N)c2cn1 [Compound 1]
20.8 min

* * *

# EXPERIMENTAL_PROTOCOL: Mouse PK study (IV and PO) in female C57B16/N
# Type: in vivo
# MEASUREMENT_CONDITIONS: mouse, plasma, 1 mg/kg (Table 5B, title: IV Dosage)
ENDPOINT_LABEL: half-life (h)
The figure you give is taken to be in h; do not add the unit.

Form field: reported half-life of CNc1cc2ccnc(N)c2cn1
4.25

* * *

# EXPERIMENTAL_PROTOCOL: Mouse PK study (IV and PO) in female C57B16/N
# Format: in vivo
# MEASUREMENT_CONDITIONS: mouse, plasma, iv, 10 mg/kg
ENDPOINT_LABEL: Tmax (min)
The figure you give is taken to be in min; do not add the unit.

Form field: reported Tmax of CNc1cc2ccnc(N)c2cn1
15

* * *

# EXPERIMENTAL_PROTOCOL: Mouse PK study (IV and PO) in female C57B16/N
# Format: in vivo
# MEASUREMENT_CONDITIONS: mouse, plasma, 3 mg/kg IV
# Protocol: Doses were freshly prepared on the day of dosing. Vehicle compositions of each dose are listed below. For IV, an appropriate amount of the test article was dissolved in the vehicle with vortexing and/or sonication to achieve a solution with the intended concentration level. […] Samples were analyzed on a AB Sciex Triple Quad 5500 LC/MS/MS instrument using a Gemini 5 μm C18 110A 150×3 mm column (XBridge BEH C18 2.5 μm 4.6×75 mm in the case of JBSNF-000265) with the following equipment installed. […]
ENDPOINT_LABEL: AUC(0-t)

Form field: reported AUC(0-t) of CNc1cc2ccnc(N)c2cn1
290 ng·h/mL

* * *

# EXPERIMENTAL_PROTOCOL: Mouse PK study (IV and PO) in female C57B16/N
# Assay type: in vivo
# MEASUREMENT_CONDITIONS: mouse, plasma, 1 mg/kg (Table 5B, title: IV Dosage)
ENDPOINT_LABEL: AUC(0-t) (ng·h/mL)
The figure you give is taken to be in ng·h/mL; do not add the unit.

Form field: reported AUC(0-t) of CNc1cc2ccnc(N)c2cn1
97

* * *

# EXPERIMENTAL_PROTOCOL: Mouse PK study (IV and PO) in female C57B16/N
# Assay type: in vivo
# MEASUREMENT_CONDITIONS: mouse, plasma, 50 mg/kg (Table 5B, title: IV Dosage)
ENDPOINT_LABEL: half-life (h)
The figure you give is taken to be in h; do not add the unit.

Form field: reported half-life of CNc1cc2ccnc(N)c2cn1
7.89

* * *

# EXPERIMENTAL_PROTOCOL: Mouse PK study (IV and PO) in female C57B16/N
# Assay type: in vivo
# MEASUREMENT_CONDITIONS: mouse, plasma, 10 mg/kg (Table 5B, title: IV Dosage)
ENDPOINT_LABEL: Cmax

Form field: reported Cmax of CNc1cc2ccnc(N)c2cn1 [Compound 1]
145 ng/mL
